- procedure text: growth effects on S. cerevisiae YJM789 – YJM789 clinical isolate, OD600, 24 h, basal, primary screen (AID 1089);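 note: growth of clinical yeast isolate S. cerevisiae YJM 789 seeded 1000 cells per well; test concentration not given here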
- details: higher = more signal, called active from +8 up or from −8 down
The following compounds are listed with their measured z-score values.
When you answer, write just the number.

Please give the measured z-score for this compound: N#Cc1ccc(NN2C(C(O)c3ccc(Br)cc3)C=CC3C(=O)N(c4ccccc4)C(=O)C32)cc1 (stereo not given) -1.16

Using the record for `CC#CCO[Si](C#Cc1ccccc1)(C(C)C)C(C)C` , report its z-score. -1.72

I would be grateful if you could share the reported z-score for `COC(=O)C/C=C/C[C@]1(O)C(=O)N(C)c2ccccc21` . -1.73

# input compound: CC1CC/C=C\[C@H]2OC34C=CCN(c5ccc6ccccc6c5)C(=O)[C@H]3N(CCCO)C(=O)[C@@H]4C2C(=O)O1 (stereo not given in full) ; wanted: its z-score 0.116

Fill blank: measured z-score of the compound CS(=O)(=O)CCOC(=O)C1=CC(c2ccc(CO)cc2)=CC(C2CC2)N(Cc2sc3ccccc3c2Cl)C=C1C(=O)OCCS(C)(=O)=O (stereo not given) is ____. -0.348

----------
# Lookup of reported composite z-score keyed by entry
- procedure text: small molecules captured by biotinylated probe aFSTL3 – biochemical, small-molecule microarray, fluorescence 635/667, stem cell growth factor project, primary screen (AID 1064);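 note: measures binding of the biotinylated anti-FSTL3 antibody to printed compounds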
- details: higher = more signal
API note: the answer field is a bare number with no unit suffix.

These solved cases illustrate the format of a correct answer.
Report composite z-score for `C=C[C@H]1C(C(=O)OCC)=CC[C@@H](c2ccccc2)N1S(=O)(=O)c1ccc(C)cc1` please. 0.131

Tell me the measured composite z-score of `CCOC(=O)C1=C[C@@H](c2ccccc2)N(S(=O)(=O)c2ccc(C)cc2)[C@H]1c1ccc(OC)cc1` , please. 0.0896

Please report the recorded composite z-score for `COc1ccc(CCNC(=O)[C@@H]2c3ccccc3C(=O)N(C3CCCCC3)[C@H]2c2ccc(CO)cc2)cc1` . 0.0003

Would you mind telling me what composite z-score value was observed for `CCOC(=O)C[C@H]1[C@H](OC(=O)c2ccc(C(=O)c3ccccc3)cc2)[C@@H](NC(=O)c2ccc3ccccc3n2)c2cc(OCCCO)ccc2N1C(=O)Cc1ccc(OC)cc1` ? -0.379

I have this molecule here, `C=C(COC)C(=O)CC[C@@H](OC(C)=O)c1cccc(OCCO)c1` , and I need its recorded composite z-score. -0.0369

Quick check: composite z-score of `COc1ccc([Si](C)(C)[C@H]2[C@H](CC(=O)N3CCC[C@H]3CO)O[C@@]3(C(=O)N(Cc4ccc(N5CCOC5=O)cc4)c4ccccc43)[C@@H]2C)cc1` ? -0.591

Please report the recorded composite z-score for `C=C[C@@H](OC)[C@H](OC(=O)Nc1ccc(OC)cc1)c1ccc(O)c(F)c1` . -0.122

Given the entry `CC[C@@H]1C=C(C(=O)O)[C@H](c2ccc(C#N)cc2)N1S(=O)(=O)c1ccc(C)cc1` , report its measured composite z-score. 0.6

***
Dear colleague, I am looking for the recorded composite z-score of the following molecule: `NC(=O)NCC#Cc1ccc2c(c1)[C@]1(C(=O)N2)[C@H](C(=O)N2CCN(c3ncccn3)CC2)[C@H]2C(=O)O[C@H](c3ccccc3)[C@H](c3ccccc3)N2[C@@H]1c1ccc(O)cc1` -0.141

Could you share which composite z-score value was measured for O=C1OCCC=C[C@H]2OC34C=CCN(Cn5nnc6ccccc65)C(=O)[C@H]3N(CCCO)C(=O)[C@@H]4C12 (some centres undefined) ? 0.32

If you can, please state the reported composite z-score value of `C=CCNC(=O)[C@@H]1[C@H]2C(=O)O[C@H](c3ccccc3)[C@H](c3ccccc3)N2[C@H](c2ccccc2OCCO)[C@@]12C(=O)Nc1ccc(C#CCCO)cc12` . -0.501

Name the recorded composite z-score for Cc1cc(C)c(C(O)C2C=CC3C(=O)N(c4ccccc4)C(=O)C3N2Nc2ccccc2F)c(C)c1 (centres undefined) . -0.0327

Value lookup for composite z-score; key = `CCCCC=C[C@@H](NC(=O)OCc1ccccc1Cl)c1ccccc1` 0.983

I am curious: what composite z-score value has been reported for `[N-]=[N+]=Nc1ccccc1[C@H]1OC(c2ccc(OCCCO)cc2)=N[C@@]1(Cc1ccccc1)C(=O)NCCN1CCOCC1` ? 0.701
